- Test system: enzymes involved in the synthesis of prostaglandin E2 from arachidonic acid
- ASSAY REMARKS: Prostaglandin E2 generation from arachidonic acid, sample added directly to crude enzyme fraction
- Format: biochemical
- CONDITION NOTES: 1 μL of 100 mM agarobiose, 100 mM agarohexaose, 10 mM DGE or 13 mM nimesulide added to 100 μL crude enzyme fraction; FIG. 15
REPORTED PROPERTY: production of prostaglandin E2 from arachidonic acid

COMPOUND	READOUT VALUE
OC[C@H]1O[C@@H](O[C@H]2[C@H]3OC[C@@H]2OC(O)[C@H]3O)[C@H](O)[C@@H](O)[C@H]1O (mixture of isomers)	not suppressed
OCC1OC(OC2C3COC2C(O)C(OC2C(O)C(CO)OC(OC4C5COC4C(O)C(OC4C(O)C(CO)OC(OC6C7COC6C(O)C(O)O7)C4O)O5)C2O)O3)C(O)C(O)C1O (stereo not shown)	not suppressed
O=C1C=CC(CO)OC1O (stereo not shown)	not suppressed

====

Activity of inhibiting α-glucosidase (% remaining activity) listing for selected molecules.
- Test system: α-glucosidase
- ASSAY REMARKS: α-glucosidase inhibition with p-nitrophenyl-α-D-glucopyranoside
- Type: biochemical, S. cerevisiae
- CONDITION NOTES: 5000 μM
REPORTED PROPERTY: Activity of inhibiting α-glucosidase (% remaining activity)

MOLECULE	READOUT VALUE
OC[C@H]1O[C@@H](O)[C@H](O)[C@@H](O[C@@H]2O[C@H]3CO[C@@H]([C@@H]2O)[C@@H]3O[C@@H]2O[C@H](CO)[C@H](O)[C@H](O[C@@H]3O[C@H]4CO[C@@H]([C@@H]3O)[C@@H]4O)[C@H]2O)[C@H]1O [Neoagarotetraose, neoagarotetraose, reference compound]	42%
OC1O[C@@H]2CO[C@@H]([C@H]2O)[C@H]1O (stereo partly drawn) [Anhydrogalactose, 3,6-anhydrogalactopyranose]	100%
OC[C@H]1O[C@@H](O)[C@H](O)[C@@H](O[C@@H]2O[C@H]3CO[C@@H]([C@@H]2O)[C@@H]3O[C@@H]2O[C@H](CO)[C@H](O)[C@H](O[C@@H]3O[C@H]4CO[C@@H]([C@@H]3O)[C@@H]4O[C@@H]3O[C@H](CO)[C@H](O)[C@H](O[C@@H]4O[C@H]5CO[C@@H]([C@@H]4O)[C@@H]5O)[C@H]3O)[C@H]2O)[C@H]1O [Neoagarohexaose, neoagarohexaose, reference compound]	8%
